Could you please report measured recombinant barcode read abundance (log10) for the items listed next?
test summary: recombinant barcode read abundance after kanamycin selection (control-corrected) (log10(CPM+1)); higher = more efficient recombination; sequences stand for … in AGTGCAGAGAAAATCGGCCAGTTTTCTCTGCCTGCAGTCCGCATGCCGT…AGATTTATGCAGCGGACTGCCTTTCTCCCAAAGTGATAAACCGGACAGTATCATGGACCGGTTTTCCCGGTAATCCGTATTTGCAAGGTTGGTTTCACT; site = the 11-nt target;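 further: IS621 recombinase and bridge RNA in Escherichia coli cells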
Answers are plain numbers.

The examples below pair each entry with its known result.
# entry sequence, reported result
records = [
    ("CTAGGATCTTGGGTTCTAACCTGTTGCAT (site CTAGGATCTTG)", 0.301),
    ("AGCCACACTTGGGTTCTAACCTGTTGCCT (site AGCCACACTAG)", 0.933),
    ("GCTTCCACTTGGGTTCTAACCTGTTGCCT (site GCTTCCACTAG)", 0.381),
]

Please state, for each entry, its recorded recombinant barcode read abundance (log10).
1. AGGCTTACTTGGGTTCTAACCTGTTGCAG (site AGTCCTACTCT)
2. GAGCTACCTTGGGTTCTAACCTGTTGCCA (site GAGCTACCTCG)

### Response
1: 0.0844; 2: 0.213

Please state, for each entry, its recorded recombinant barcode read abundance (log10).
1. GCCGACACTTGGGTTCTAACCTGTTGCCT (site GCCGATACTAG)
2. GTAGCCACTTGGGTTCTAACCTGTTGCCT (site GTCGCCACTAG)
3. GGGACTTCTTGGGTTCTAACCTGTTGCAT (site GGGCCTTCTAT)

### Response
1. 0.17
2. 0.449
3. 0.0615
